Give measured increase in potency under copper supplementation versus non-copper-supplemented IC90 for each item. Keep answers brief.
- Test system: MIAPACA2 cells
- ASSAY DETAILS: Proliferation assay (CellTiter-Glo, 72 h) in MIAPACA2 cells
- Type: cell-based, human
- PROTOCOL CONDITIONS: 20 μM CuCl2

Worked set:
| COMPOUND | REPORTED VALUE |
| --- | --- |
| CNC(=S)N/N=C/c1nccc2ccccc12 [HCT6, reference compound] | 60 fold |
| NC(=S)N/N=C/c1nccc2ccccc12 [HCT1, reference compound] | 10 fold |

Read the next record carefully.
q: Give increase in potency under copper supplementation versus non-copper-supplemented IC90 for CN(C)C(=S)N/N=C/c1nccc2ccccc12 (mixture of isomers) tested on MIAPACA2 cells.
a: 400 fold

* * *

- Test system: MIAPACA2 cells
- ASSAY DETAILS: Proliferation assay (CellTiter-Glo, 72 h) in MIAPACA2 cells
- Type: cell-based, human
- PROTOCOL CONDITIONS: MIAPACA2, 72 h, DMEM + 10% FBS + 20 μM CuCl2; read-out: +Cu(II) IC90
Simple rule here: IC90 less than 100 nM is class 1, otherwise class 0.

Example entries and their recorded answers appear below.
| COMPOUND | ASSIGNED CLASS |
| --- | --- |
| NC(=S)N/N=C/c1nccc2ccccc12 [HCT1, reference compound] | class 0 |
| CN(C)C(=S)N/N=C/c1ncc(F)c2ccccc12 (mixture of isomers) [HCT12] | class 1 |
| CNC(=S)N/N=C/c1ncc(F)c2ccccc12 [HCT7] | class 0 |
| CNC(=S)N/N=C/c1nccc2ccccc12 [HCT6, reference compound] | class 0 |

Please turn your attention to the following entry.
q: Strictly below 100 nM in IC90? CNC(=S)N/N=C/c1nccc2cc(F)ccc12 [HCT8]
a: class 0
